- Test system: Streptococcus pneumoniae
- assay.explanation: Antimicrobial activity against Streptococcus pneumoniae ATCC BAA-612
- Format: functional
observation.type: MIC (µg/mL)
Give the quantity in µg/mL, number only.

Q. Give the measured MIC of CO/N=C(\C(=O)N[C@@H]1C(=O)N2C(C(=O)[O-])=C(C[N+]3(C)CCCC3)CS[C@H]12)c1csc(N)n1 [CEFEPIME] .
A. 0.25

Q. Item C[C@@H](O)[C@H]1C(=O)N2C(C(=O)O)=C(S[C@@H]3CN[C@H](C(=O)N(C)C)C3)[C@H](C)[C@H]12 [MEROPENEM] has what recorded MIC?
A. 0.06

Q. Recorded MIC for CO/N=C(\C(=O)N[C@@H]1C(=O)N2C(C(=O)O)=C(CSc3nc(=O)c(O)nn3C)CS[C@H]12)c1csc(N)n1 [CEFTRIAXONE] , please?
A. 0.06

Q. Given the entry CC1(C)S[C@@H]2[C@H](NC(=O)Cc3ccccc3)C(=O)N2[C@H]1C(=O)O [PENICILLIN G] , report its measured MIC.
A. 0.12
